Biological target: UniProt P0AE70
Sequence (P0AE70 whole entry): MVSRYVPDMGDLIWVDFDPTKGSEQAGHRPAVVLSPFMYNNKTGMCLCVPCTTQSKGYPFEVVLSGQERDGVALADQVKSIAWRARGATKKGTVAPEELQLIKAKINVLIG
Assay: substrate-only fluorescence increase artefacts – biochemical, single-stranded RNase substrate, counter-screen for MazEF activator project, dose response (AID 588502)
Type: functional
Calls of active or inactive are those of the source.
Just give me one of these, please: active, inactive

Some solved cases for reference:
In [3]: df
Out[3]:
                                   compound     label
0  CCOn1c(=O)c(-c2cc3ccccc3o2)[n+]([O-])c2ccccc21  inactive
1  Cc1c(C(=O)Oc2cc(N)n(S(C)(=O)=O)n2)cccc1[N+](=O)[O-]  inactive
2       Cn1cccc1/C=C1\SC(=O)N(c2ccccc2)C1=O  inactive
3        CCN1C(=S)SC(=O)C1=C1C=C(C)OC(C)=C1  inactive
4  Cc1nnc(N2C(=O)C(O)=C(C(=O)c3ccco3)C2c2ccc(C(C)(C)C)cc2)s1 (centres undefined)    active

Problem: For this compound, state the assay outcome: `CCN(CC)CCn1c(=O)n(-c2ccc(Cl)cc2)c(=O)c2c3c(sc21)CN(C)CC3`
Solution: inactive

Problem: Short answer needed: outcome of this test for `O=C(CSc1nc(-c2ccccc2)nc2ccccc12)Nc1nccs1` ?
Solution: inactive

Problem: Kindly provide the recorded test outcome for the following compound: `CC(=O)c1cc(NC(=O)c2cccc(C(F)(F)F)c2)c(=O)oc1/C=C/N(C)C`
Solution: inactive

Problem: What call does the record list for `CCC(=O)Oc1ccc2c(c1)O/C(=C\c1ccco1)C2=O` ?
Solution: inactive

----------
assay: cells; assay type: functional, cell-based
Active and inactive are the calls of the source.
readout_label: EC50

Worked set:
>>> df
                                   molecule  readout_label                 result
0          Oc1ccc(/C=N/Nc2ncc(Br)cn2)c(O)c1           EC50  > 350 µM (not active)
1         Cn1c(SCC(=O)c2ccccc2)nnc1-c1ccco1           EC50       57.5 µM (active)
2  COc1cccc(/C=N/NC(=O)c2c(C)nc3ccc(Br)cn23)c1O           EC50        126 µM (active)
3  FC(F)(F)c1ccc2c(c1)NP(=S)(N1CCOCC1)c1nccn1-2 (stereo not given)           EC50  > 350 µM (not active)

Here is another molecule to look at.
Problem: Please give the measured EC50 for this molecule: `CCc1ccc(OCC(=O)Nc2ccncc2)c(Br)c1`
Solution: > 350 µM (not active)

----------
biological target: Fatty acid synthase (Homo sapiens, UniProt P49327); experiment: inhibition of human FAS-TE enzyme activity – biochemical, endpoint fluorescence intensity, uHTS hits, dose response (AID 624327); assay type: functional;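 note: fluorescence from hydrolysis of an O-methyl fluorescein acyl ester substrate by the enzyme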
Sequence (P49327 whole entry): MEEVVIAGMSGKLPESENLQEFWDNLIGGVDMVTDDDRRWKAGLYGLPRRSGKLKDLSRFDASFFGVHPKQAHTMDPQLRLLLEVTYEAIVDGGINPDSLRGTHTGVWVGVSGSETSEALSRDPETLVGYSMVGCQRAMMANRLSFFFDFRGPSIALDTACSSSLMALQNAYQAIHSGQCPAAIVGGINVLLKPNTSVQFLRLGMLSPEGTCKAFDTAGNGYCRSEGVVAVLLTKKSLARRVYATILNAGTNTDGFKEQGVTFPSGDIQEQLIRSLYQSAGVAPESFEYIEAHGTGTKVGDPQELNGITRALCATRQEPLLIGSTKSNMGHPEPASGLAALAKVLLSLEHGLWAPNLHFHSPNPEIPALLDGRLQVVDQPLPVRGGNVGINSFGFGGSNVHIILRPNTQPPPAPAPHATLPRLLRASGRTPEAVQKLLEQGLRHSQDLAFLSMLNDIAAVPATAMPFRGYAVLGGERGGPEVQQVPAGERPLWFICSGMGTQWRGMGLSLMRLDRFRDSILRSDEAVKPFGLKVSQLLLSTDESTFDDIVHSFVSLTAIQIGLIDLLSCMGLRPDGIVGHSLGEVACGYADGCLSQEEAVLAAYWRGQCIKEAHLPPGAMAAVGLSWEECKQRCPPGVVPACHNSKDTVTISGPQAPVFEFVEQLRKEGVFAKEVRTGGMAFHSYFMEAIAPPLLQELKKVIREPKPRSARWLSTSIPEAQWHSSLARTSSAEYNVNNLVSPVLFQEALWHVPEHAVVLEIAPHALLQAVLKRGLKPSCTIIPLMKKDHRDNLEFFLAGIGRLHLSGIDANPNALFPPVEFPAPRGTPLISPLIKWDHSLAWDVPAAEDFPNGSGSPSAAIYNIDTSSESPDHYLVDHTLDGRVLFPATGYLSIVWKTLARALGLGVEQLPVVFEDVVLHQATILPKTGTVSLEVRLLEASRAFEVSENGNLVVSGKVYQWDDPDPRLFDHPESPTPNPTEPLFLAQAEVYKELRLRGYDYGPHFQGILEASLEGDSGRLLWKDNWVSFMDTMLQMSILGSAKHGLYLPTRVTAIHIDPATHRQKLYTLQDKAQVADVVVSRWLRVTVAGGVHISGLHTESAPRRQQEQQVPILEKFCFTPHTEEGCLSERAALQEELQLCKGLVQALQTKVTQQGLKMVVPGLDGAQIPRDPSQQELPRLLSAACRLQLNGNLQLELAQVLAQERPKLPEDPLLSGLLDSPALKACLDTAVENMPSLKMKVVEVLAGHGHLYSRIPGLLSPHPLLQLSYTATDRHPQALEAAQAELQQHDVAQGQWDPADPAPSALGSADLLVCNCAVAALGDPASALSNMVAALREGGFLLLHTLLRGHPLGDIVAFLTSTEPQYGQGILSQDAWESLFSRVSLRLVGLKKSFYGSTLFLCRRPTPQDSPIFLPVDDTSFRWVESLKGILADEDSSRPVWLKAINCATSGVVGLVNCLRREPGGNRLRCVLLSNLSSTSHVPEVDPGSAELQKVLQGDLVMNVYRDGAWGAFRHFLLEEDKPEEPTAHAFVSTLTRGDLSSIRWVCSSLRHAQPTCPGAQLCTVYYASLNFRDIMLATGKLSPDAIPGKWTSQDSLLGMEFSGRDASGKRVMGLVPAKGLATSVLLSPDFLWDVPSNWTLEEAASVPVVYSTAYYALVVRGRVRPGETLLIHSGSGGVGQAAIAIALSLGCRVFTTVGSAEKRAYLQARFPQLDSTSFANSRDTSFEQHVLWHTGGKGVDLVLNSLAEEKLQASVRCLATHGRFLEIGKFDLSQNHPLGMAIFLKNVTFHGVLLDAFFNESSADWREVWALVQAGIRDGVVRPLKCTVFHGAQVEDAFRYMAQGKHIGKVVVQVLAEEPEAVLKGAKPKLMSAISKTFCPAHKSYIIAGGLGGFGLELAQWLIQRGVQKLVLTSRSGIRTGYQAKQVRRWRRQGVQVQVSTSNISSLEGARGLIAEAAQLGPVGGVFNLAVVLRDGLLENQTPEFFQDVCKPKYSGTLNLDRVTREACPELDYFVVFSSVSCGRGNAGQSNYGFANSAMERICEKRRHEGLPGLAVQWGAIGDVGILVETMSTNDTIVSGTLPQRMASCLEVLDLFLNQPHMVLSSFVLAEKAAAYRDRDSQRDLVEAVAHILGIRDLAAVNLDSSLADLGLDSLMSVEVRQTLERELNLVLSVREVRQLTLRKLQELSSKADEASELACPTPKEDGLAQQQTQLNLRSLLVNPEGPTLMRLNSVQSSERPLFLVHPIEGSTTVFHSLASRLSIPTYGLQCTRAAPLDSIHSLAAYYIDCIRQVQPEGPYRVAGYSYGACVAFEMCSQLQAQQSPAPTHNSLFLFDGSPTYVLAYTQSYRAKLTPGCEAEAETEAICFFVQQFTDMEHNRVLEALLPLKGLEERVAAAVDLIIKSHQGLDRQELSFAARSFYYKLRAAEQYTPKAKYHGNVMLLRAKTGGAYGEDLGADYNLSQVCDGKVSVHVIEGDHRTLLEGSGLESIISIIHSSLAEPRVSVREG
Calls of active or inactive are those of the source.
readout_label: IC50

Solved cases below.
In [3]: df
Out[3]:
                                   molecule  readout_label            result
0  O=C(/C=C/c1cccc([N+](=O)[O-])c1)NCCSc1ccccc1           IC50  4.58 µM (active)
1  COc1ccc([N+](=O)[O-])cc1/C=N/NC(=O)CNC(=O)c1cccc(F)c1           IC50  10.3 µM (active)
2  O=C(NCc1ccco1)/C(=C\c1cccc([N+](=O)[O-])c1)NC(=O)c1ccco1           IC50  9.41 µM (active)
3  CN(CC(=O)Nc1ccc(Cl)c(C(F)(F)F)c1)C(=O)C1CC(=O)N(c2ccc3c(c2)OCCO3)C1 (configuration not stated)           IC50  10.4 µM (active)
4  O=C(OCc1ccc([N+](=O)[O-])cc1)C1CCN(S(=O)(=O)c2ccccc2)CC1           IC50  9.66 µM (active)
5  CCCCCOC(=O)c1ccc(N2C(=O)C3C4C=CC(C4)C3C2=O)cc1 (configuration not stated)           IC50  2.93 µM (active)

Field: next molecule
Problem: # lookup: IC50 of O=C(Nc1cc([N+](=O)[O-])ccc1Cl)C(Sc1ccccc1)c1ccccc1 (configuration not stated)
Solution: 4.75 µM (active)
